Measured IC50 accompanies every entry in the list below.
- targetEntity: C5AR1 (Homo sapiens, UniProt P21730)
- Sequence (P21730 whole entry): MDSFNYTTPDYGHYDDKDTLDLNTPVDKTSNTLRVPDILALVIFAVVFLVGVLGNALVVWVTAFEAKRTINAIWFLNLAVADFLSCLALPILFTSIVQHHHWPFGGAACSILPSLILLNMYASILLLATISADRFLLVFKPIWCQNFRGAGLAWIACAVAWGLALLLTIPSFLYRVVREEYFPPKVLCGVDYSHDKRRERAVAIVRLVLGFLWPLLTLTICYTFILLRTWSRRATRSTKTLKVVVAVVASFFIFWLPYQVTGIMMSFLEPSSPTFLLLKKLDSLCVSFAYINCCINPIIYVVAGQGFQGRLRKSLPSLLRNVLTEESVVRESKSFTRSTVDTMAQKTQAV
- assayInfo: In vitro assay: antagonism of C5a-induced beta-arrestin recruitment (PathHunter) in CHO-K1 C5AR1 beta-arrestin cell line
- particulars: antagonistic activity, 1-10 nM C5a agonist, geometric mean where several measurements, read-out: C5aR IC50

| compound | IC50 (nM) |
| --- | --- |
| Cc1cccc(F)c1N1CCC(N2Cc3cn(CC4(C)COC4)nc3N(Cc3ccccc3C(F)(F)F)C2=O)CC1 [Example 166] | 12 |
| Cc1cccc(F)c1N1CCC(N2Cc3cn(C)nc3N(Cc3ccccc3C(F)(F)F)C2=O)C1 (stereo not shown) [Example 44] | 35 |
| Cc1cccc(F)c1N1CCC(N2Cc3nn(C(C)(C)C)cc3N(Cc3ccccc3C(F)(F)F)C2=O)CC1 [Example 183] | 22 |
| Cc1cccc(F)c1N1CCC(N2Cc3cn(CC(C)(C)O)nc3N(Cc3ccccc3C(F)(F)F)C2=O)CC1 [Example 25] | 18 |

====

- targetEntity: C5AR1 (Homo sapiens, UniProt P21730)
- assayInfo: In vitro assay: antagonism of C5a-induced beta-arrestin recruitment (PathHunter) in CHO-K1 C5AR1 beta-arrestin cell line
- particulars: antagonistic activity, 1-10 nM C5a agonist, geometric mean where several measurements, read-out: C5aR IC50
pIC50: −log10 of the molar value.
Measured pIC50 accompanies every entry in the list below.

| molecule | pIC50 |
| --- | --- |
| Cc1cccc(F)c1N1CCC(N2C(=O)N(Cc3ccccc3C(F)(F)F)c3nn(C4CC4)cc3C2C)CC1 (single isomer, unassigned) [Example 310] | 7.52 |
| Cn1cc2c(n1)N(Cc1ccccc1C1CC1)C(=O)N(C1CCN(c3c(F)cccc3C(F)F)CC1)C2 | 7.66 |
| CC1c2c[nH]nc2N(Cc2ccccc2C(F)(F)F)C(=O)N1C1CCN(c2c(F)cccc2Cl)CC1 (single isomer, unassigned) [Example 350] | 8.40 |
| Cn1cc2c(n1)CN(C1CCN(c3c(F)cccc3OC(F)(F)F)CC1)C(=O)N2Cc1ccccc1C(F)(F)F | 7.27 |
| Cc1cccc(F)c1N1CCC(N2Cc3cn(C(C)(C)C)nc3N(Cc3ccccc3C(F)(F)F)C2=O)CC1 | 7.82 |
| CC1c2cn(C3CC3)nc2N(Cc2ccccc2C(F)(F)F)C(=O)N1C1CCN(c2c(F)cccc2Br)CC1 (single isomer, unassigned) [Example 360] | 8.52 |
| Cc1cccc(F)c1N1CCC(N2Cc3cn(CC(C)F)nc3N(Cc3ccccc3C(F)(F)F)C2=O)CC1 (single isomer, unassigned) [Example 186] | 8.10 |
